experimentalSystem: BTK (Homo sapiens, UniProt Q06187)
Sequence (Q06187 whole entry): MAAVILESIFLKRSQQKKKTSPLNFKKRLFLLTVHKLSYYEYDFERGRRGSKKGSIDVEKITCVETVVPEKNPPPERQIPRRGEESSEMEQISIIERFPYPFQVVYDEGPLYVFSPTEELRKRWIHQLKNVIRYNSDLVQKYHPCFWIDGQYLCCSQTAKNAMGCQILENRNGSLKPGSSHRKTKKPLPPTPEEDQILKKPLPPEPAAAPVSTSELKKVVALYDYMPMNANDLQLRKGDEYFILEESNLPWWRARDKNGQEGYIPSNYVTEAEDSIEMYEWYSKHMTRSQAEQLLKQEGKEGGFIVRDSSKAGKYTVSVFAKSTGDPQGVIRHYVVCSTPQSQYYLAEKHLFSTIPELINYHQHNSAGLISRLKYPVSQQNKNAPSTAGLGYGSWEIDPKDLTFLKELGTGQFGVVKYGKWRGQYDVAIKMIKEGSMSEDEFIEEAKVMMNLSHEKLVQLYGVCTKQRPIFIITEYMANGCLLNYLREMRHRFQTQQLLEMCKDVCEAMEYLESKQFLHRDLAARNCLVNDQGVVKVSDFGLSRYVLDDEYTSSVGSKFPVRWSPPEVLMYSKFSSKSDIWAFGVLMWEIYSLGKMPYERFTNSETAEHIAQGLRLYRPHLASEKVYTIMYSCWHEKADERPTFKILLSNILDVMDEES
assayExplanation: Degradation of BTK protein in Namalwa cells (Western blot; DC50, Dmax)
measureName: Dmax

In the examples that follow, each entry is paired with its recorded Dmax.
[
  {
    "compound": "Nc1ncnc2c1c(-c1ccc(Oc3ccccc3)cc1)nn2C1CCN(C2CCN(C(=O)N3CCN(CCCN4CCN(c5ccc6c(c5)CN(C5CCC(=O)NC5=O)C6=O)CC4)CC3)CC2)CC1 (stereo not shown) [Compound 258]",
    "Dmax": "> 75%"
  },
  {
    "compound": "Nc1ncnc2c1c(-c1ccc(Oc3ccccc3)cc1)nn2C1CCN(C2CCN(C(=O)N3CCN(CCC4CCN(c5ccc6c(c5)CN(C5CCC(=O)NC5=O)C6=O)CC4)CC3)CC2)CC1 (stereo not shown) [Compound 248]",
    "Dmax": "> 75%"
  },
  {
    "compound": "NC(=O)c1c(-c2ccc(Oc3ccccc3)cc2)nn2c1NCCC2C1CCN(C(=O)N2CCC(CCN3CCC(c4ccc5c(c4)CN(C4CCC(=O)NC4=O)C5=O)CC3)CC2)CC1 (stereo not shown) [Compound 286]",
    "Dmax": "> 75%"
  },
  {
    "compound": "Nc1ncnc2c1c(-c1ccc(Oc3ccccc3)cc1)nn2C1CCN(C2CCN(CCN3CCC(c4ccc5c(c4)C(=O)N(C4CCC(=O)NC4=O)C5=O)CC3)CC2)CC1 (stereo not shown) [Compound 219]",
    "Dmax": "> 50%"
  }
]

Exercise: // fetch Dmax given entry NC(=O)c1c(-c2ccc(Oc3ccccc3)cc2)nn2c1NCCC2C1CCN(CC2CCN(C(=O)N3CCN(Cc4ccc5c(c4)C(=O)N(C4CCC(=O)NC4=O)C5=O)CC3)CC2)CC1 (stereo not shown) [Compound 359]
Solution: > 50%

Exercise: Return Dmax for the following compound: Nc1ncnc2c1c(-c1ccc(Oc3ccccc3)cc1)nn2C1CCN(CC2CCN(CCN3CCC(c4ccc5c(c4)C(=O)N(C4CCC(=O)NC4=O)C5=O)CC3)CC2)CC1 (stereo not shown) [Compound 205]
Solution: > 90%

Exercise: Please report Dmax for the following compound: NC(=O)c1c(-c2ccc(Oc3ccccc3)cc2)nn2c1NCCC2C1CCN(C2CCN(C(=O)N3CCN(c4ccc5c(c4)CN(C4CCC(=O)NC4=O)C5=O)CC3)CC2)CC1 (stereo not shown) [Compound 338]
Solution: > 50%

Exercise: Recall and state the measured Dmax for Nc1ncnc2c1c(-c1ccc(Oc3ccccc3)cc1)nn2C1CCN(C2CCN(C(=O)N3CCN(CCCC4CCN(c5ccc6c(c5)C(=O)N(C5CCC(=O)NC5=O)C6=O)CC4)CC3)CC2)CC1 (stereo not shown) [Compound 259] .
Solution: > 75%

Exercise: Identify the reported Dmax for the following entry. NC(=O)c1c(-c2ccc(Oc3ccccc3)cc2)nn2c1NCCC2C1CCN(C(=O)N2CCN(CCN3CCC(c4ccc5c(c4)C(=O)N(C4CCC(=O)NC4=O)C5=O)CC3)CC2)CC1 (stereo not shown) [Compound 287]
Solution: > 75%

Exercise: Please report the measured Dmax for NC(=O)c1c(-c2ccc(Oc3ccccc3)cc2)nn2c1NCCC2C1CCN(C2CCN(C(=O)N3CCC(N4CCN(c5ccc6c(c5)C(=O)N(C5CCC(=O)NC5=O)C6=O)CC4)CC3)CC2)CC1 (stereo not shown) [Compound 341]
Solution: > 90%
